self-aminoacylation values by entry
System: biotinyl-Trp-oxazolone
Assay: self-aminoacylation, catalytic enhancement (BWO) (fold over background); higher = more active; k-Seq, kA / k0A0; sequences stand for … in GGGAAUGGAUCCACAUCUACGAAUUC…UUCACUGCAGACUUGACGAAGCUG
Fewer inactive variants are shown than the library holds.
# output: bare number, no unit

monomer_sequence="CCACAUUUCUAGCAAUCGGUC [Fam1B.1 aminoacylation ribozyme variant]" test_target=biotinyl-Trp-oxazolone value_observed=1.22

Item: AUUUCCCUGGUCAUCAAGUGA [Fam2.1 aminoacylation ribozyme variant] | self-aminoacylation: 2.88

Item: CUACUUGAAACAAUCGUUCUG [Fam1A.1 aminoacylation ribozyme variant] | self-aminoacylation: 0.379

Item: ACGUUUGGUAAUAGUCGCAAG [Fam3.1 aminoacylation ribozyme variant] | self-aminoacylation: 2.45

Item: UAGUUUUCUAAUAGUCGCAAG [Fam3.1 aminoacylation ribozyme variant] | self-aminoacylation: 1.59

Item: AAUUUUGCUAAUAGUCGCAAU [Fam3.1 aminoacylation ribozyme variant] | self-aminoacylation: 2.09

Item: AAGUUUUCUAAAAGUCGCAAG [Fam3.1 aminoacylation ribozyme variant] | self-aminoacylation: 2.01

Item: CUACUUCAACGAAUCGGUCUG [Fam1A.1 aminoacylation ribozyme variant] | self-aminoacylation: 3.92

Item: CUACUUCAAACAAUCGGUUGG [Fam1A.1 aminoacylation ribozyme variant] | self-aminoacylation: 1.82

Item: AUUCGCCUAGGUCACCGGGUG [Fam2.2 aminoacylation ribozyme variant] | self-aminoacylation: 5.18

Item: CCACUCUUCAAGUAAUCGGUC [Fam1B.1 aminoacylation ribozyme variant] | self-aminoacylation: 3.88

Item: AAAUUUGCUAAUAGUCGUAAG [Fam3.1 aminoacylation ribozyme variant] | self-aminoacylation: 4.02

Item: AUCACCUUGGUCAUCGAGUGA [Fam2.1 aminoacylation ribozyme variant] | self-aminoacylation: 7.19
